Could you please report measured pIC50 for the items listed next?
- subjectOfTest: Beta-secretase 1 (Homo sapiens, UniProt P56817)
- Sequence (P56817 whole entry): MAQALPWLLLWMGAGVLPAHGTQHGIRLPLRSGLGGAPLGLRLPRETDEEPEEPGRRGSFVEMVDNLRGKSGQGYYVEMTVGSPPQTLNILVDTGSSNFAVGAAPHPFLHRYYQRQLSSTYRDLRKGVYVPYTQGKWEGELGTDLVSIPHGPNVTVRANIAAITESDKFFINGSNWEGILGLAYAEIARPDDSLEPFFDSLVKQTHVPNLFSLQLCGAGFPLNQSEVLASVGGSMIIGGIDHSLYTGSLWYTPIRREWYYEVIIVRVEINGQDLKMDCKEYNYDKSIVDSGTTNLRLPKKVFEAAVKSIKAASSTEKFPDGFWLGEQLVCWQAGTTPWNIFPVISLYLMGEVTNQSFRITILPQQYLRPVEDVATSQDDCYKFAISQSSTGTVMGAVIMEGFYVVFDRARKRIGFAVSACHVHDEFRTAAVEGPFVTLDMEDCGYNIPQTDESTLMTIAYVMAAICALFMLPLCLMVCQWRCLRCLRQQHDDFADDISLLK
- assayComment: Inhibition of BACE1 after 30 mins by homogeneous time resolved fluorescence assay
Units for pIC50: none; it is -log10 of a concentration expressed in mol/L.

Provide pIC50, system Beta-secretase 1 (Homo sapiens, UniProt P56817), entry CC(C)[C@H](NC(=O)[C@H](C)C[C@H](O)[C@H](COc1cc(F)cc(F)c1)NC(=O)c1cc(C(=O)N[C@H](C)c2ccccc2)cc(N(C)S(C)(=O)=O)c1)C(=O)NCc1ccccc1
8.51

Provide pIC50, system Beta-secretase 1 (Homo sapiens, UniProt P56817), entry CC(C)[C@H](NC(=O)[C@@H](C)C[C@H](O)[C@H](COc1cc(F)cc(F)c1)NC(=O)c1cc(C(=O)N[C@H](C)c2ccccc2)cc(N(C)S(C)(=O)=O)c1)C(=O)NCc1ccccc1
8.00

Provide pIC50, system Beta-secretase 1 (Homo sapiens, UniProt P56817), entry CNC(=O)c1cc(C(=O)N[C@@H](COCc2cc(F)cc(F)c2)[C@@H](O)C[C@@H](C)C(=O)N[C@H](C(=O)NCc2ccccc2)C(C)C)cc(N(C)S(C)(=O)=O)c1
5.90

Provide pIC50, system Beta-secretase 1 (Homo sapiens, UniProt P56817), entry CC(C)[C@H](NC(=O)[C@H](C)C[C@H](O)[C@H](COCc1ccccc1)NC(=O)c1cc(C(=O)N[C@H](C)c2ccccc2)cc(N(C)S(C)(=O)=O)c1)C(=O)NCc1ccccc1
8.44

Provide pIC50, system Beta-secretase 1 (Homo sapiens, UniProt P56817), entry CSCC[C@H](NC(=O)[C@@H](NC(=O)OC(C)(C)C)C(C)C)C(=O)N[C@@H](COCc1cc(F)cc(F)c1)[C@@H](O)C[C@@H](C)C(=O)N[C@H](C(=O)NCc1ccccc1)C(C)C
5.00
